B1: OR4K15 (parent)
chain: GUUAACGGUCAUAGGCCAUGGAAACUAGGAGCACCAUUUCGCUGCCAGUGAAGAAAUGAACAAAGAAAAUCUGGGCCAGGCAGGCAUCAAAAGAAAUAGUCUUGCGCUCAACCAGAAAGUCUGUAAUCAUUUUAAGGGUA

# Variants of: B1
# procedureSummary: self-cleavage, relative activity (ratio to wild type); higher = more cleavage; in vitro, sequencing; the parent is a self-cleaving ribozyme
Classify on self-cleavage using Low (below 0.6), Mid (0.6 to below 1), High (1 or more)

A23G G84U :: Low
A36G G123A :: High
U19C A96C :: Mid
G7A U124C :: High
A62G A117C :: Mid
U2C A5U :: High
U9C A30G :: High
A5G U72A :: Low
G74U G83A :: Low
U9C A23U :: High
A66U A78G :: Low
G31A A78G :: Low
G74A A96C :: Low
C25U C109U :: Low
A30G A52G :: High
U49C U70A :: High
A59G U139C :: High
G41C U122A :: High
A13G U39C :: Mid
A86G :: High
